assay method text: Caspase-3/7 induction in CHO-K1 cells by small molecules, qHTS cell viability counter screen (AID 1346979); also: nearly all actives have a fitted effect of over 35% in size
condition summary: CellTiter-Fluor fluorescence, 17 h; series mostly up to 92.4 µM
Records with an inconclusive call do not appear. Calls of active or inactive are those of the source. Calls follow the shape of the dose curve; as a rule, active = well fitted cell-killing curve with a large enough effect in the repeat runs; inconclusive = weak or mixed curves, or effect the other way; inactive = no such curve, though single readings can be large or run the other way.
Please reply with one of these outcomes: 1 (active), -1 (inactive)

Task: Called result for BrC(Br)C(Br)(Br)Br
Result: 1

Task: Which outcome was assigned to O=CC(Br)(Br)Br in this test?
Result: 1

====

assay method text: qHTS assay to identify small molecule antagonists of the estrogen receptor alpha (ER-alpha) signaling pathway using the BG1 cell line (AID 743080);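 also: BG1 cells stimulated with 17beta-estradiol alongside compound; nearly all actives have a fitted effect of over 25% in size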
condition summary: BG1Luc4E2 ERE-luciferase antagonist mode, luminescence; series mostly up to 70.3 µM
Inconclusive results are not listed. Active and inactive are the calls of the source. The call rests on the fitted dose curve.
Log the outcome using a class from y = active, n = inactive

CC(C)OS(C)(=O)=O
n
CCCCCCCCCCCCCN1CC(C)OC(C)C1 (stereo not given)
n
CNC(C)Cc1ccc2c(c1)OCO2 (stereo not given)
n
Cc1cc(C(F)(C(F)(F)F)C(F)(F)F)ccc1NC(=O)c1cccc(I)c1C(=O)NC(C)(C)CS(C)(=O)=O
n

Task: What call does the record list for ClC1=C(Cl)[C@]2(Cl)[C@H]3[C@H]([C@H]4C=C[C@H]3C4)[C@@]1(Cl)C2(Cl)Cl ?
Result: n

Task: Hi, sorry to bother you, what did the test record for c1ccc2c(c1)OCC(C1=NCCN1)O2 (stereo not given) ?
Result: n

Task: Given O=S(=O)(c1ccc(Cl)cc1)c1ccc(Cl)cc1 , state the outcome it received in this test.
Result: y

Task: Recorded call for C[C@H]1O[C@@H](O[C@H]2[C@@H](O)C[C@H](O[C@H]3[C@@H](O)C[C@H](O[C@H]4CC[C@@]5(C)[C@H](CC[C@@H]6[C@@H]5CC[C@]5(C)[C@@H](C7=CC(=O)OC7)CC[C@]65O)C4)O[C@@H]3C)O[C@@H]2C)C[C@H](O)[C@@H]1O ?
Result: y

Task: Record request — test call for ClCc1ccc(Cl)cc1Cl
Result: n

Task: Record request — test call for ClC(Cl)=C(c1ccc(Cl)cc1)c1ccc(Cl)cc1
Result: n

====

assayed system: Estrogen receptor (Homo sapiens) (UniProt P03372)
Sequence (P03372 whole entry, looked up): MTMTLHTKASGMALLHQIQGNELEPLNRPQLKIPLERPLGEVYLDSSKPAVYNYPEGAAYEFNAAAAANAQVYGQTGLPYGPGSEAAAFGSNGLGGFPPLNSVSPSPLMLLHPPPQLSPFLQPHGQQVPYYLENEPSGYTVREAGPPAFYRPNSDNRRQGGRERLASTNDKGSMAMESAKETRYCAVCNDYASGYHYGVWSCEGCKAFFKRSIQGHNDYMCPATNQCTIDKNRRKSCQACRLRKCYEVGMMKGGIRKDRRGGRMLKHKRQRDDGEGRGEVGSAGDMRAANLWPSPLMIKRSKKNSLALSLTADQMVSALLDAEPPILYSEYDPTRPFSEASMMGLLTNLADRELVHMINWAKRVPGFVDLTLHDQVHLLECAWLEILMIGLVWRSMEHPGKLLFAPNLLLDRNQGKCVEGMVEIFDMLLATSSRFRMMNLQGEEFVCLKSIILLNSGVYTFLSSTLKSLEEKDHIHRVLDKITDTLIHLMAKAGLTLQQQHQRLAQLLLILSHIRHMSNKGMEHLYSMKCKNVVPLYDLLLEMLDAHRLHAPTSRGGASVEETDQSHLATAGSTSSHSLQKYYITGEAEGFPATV
assay method text: qHTS assay to identify small molecule agonists of the estrogen receptor alpha (ER-alpha) signaling pathway in the presence of an antagonist (AID 1259383); also: top concentration of the series differs between compounds; nearly all actives have a fitted effect of over 15% in size
condition summary: VM7Luc4E2 cells, ERE-luciferase, +ICI-182,780, 22 h; series mostly up to 92.4 µM
The source made the active and inactive calls. Calls follow the shape of the full dose curve.
Please answer using one outcome listed in active, inactive

# count of solved cases: 8
OC(Cc1ccccc1Cl)(Cn1cncn1)C1(Cl)CC1 (stereo not drawn)
inactive
NNC(=O)c1ccccc1
inactive
CCCCCCCCCCCCCCCC[n+]1ccccc1
inactive
CN(C)C1CSSSC1
inactive
N#CCc1ccc(Cl)cc1
inactive
CCOCn1c(-c2ccc(Cl)cc2)c(C#N)c(Br)c1C(F)(F)F
inactive
C[C@@H]1CC[C@@]2(OC1)O[C@H]1[C@@H](O)[C@H]3[C@@H]4CC[C@H]5C[C@@H](O[C@@H]6O[C@H](CO)[C@H](O[C@@H]7O[C@H](CO)[C@@H](O)[C@H](O[C@@H]8OC[C@@H](O)[C@H](O)[C@H]8O)[C@H]7O[C@@H]7O[C@H](CO)[C@@H](O)[C@H](O[C@@H]8O[C@H](CO)[C@@H](O)[C@H](O)[C@H]8O)[C@H]7O)[C@H](O)[C@H]6O)[C@H](O)C[C@]5(C)[C@H]4CC[C@]3(C)[C@H]1[C@@H]2C
inactive
CCOCCOC(C)=O
inactive

Task: Which outcome was entered for the compound CC(C)(C)c1ccc(CSc2cnn(C(C)(C)C)c(=O)c2Cl)cc1 in this test?
Result: inactive

Task: Hi, sorry to bother you, what did the test record for CCN(CC)C(=S)[S-].CCN(CC)C(=S)[S-].[Zn+2] ?
Result: inactive

Task: # outcome recorded in this test, key = CC(C)N1C(=O)N(c2ccccc2)CSC1=NC(C)(C)C
Result: inactive

Task: Test call for this compound, please: CC(C)CC(C)N (stereo not drawn)
Result: inactive

Origin of the recorded values: PubChem BioAssay (Tox21)
